# maps each entry to its EC50, HEK-Blue IL18R reporter assay
Molecular target: T1, IL-18R on HEK-Blue IL18R reporter cells (InvivoGen, #hkb-hmi118) (UniProt Q13478 19-541; O95256 20-599, limits assumed)
T1 sequence (looked up) 1: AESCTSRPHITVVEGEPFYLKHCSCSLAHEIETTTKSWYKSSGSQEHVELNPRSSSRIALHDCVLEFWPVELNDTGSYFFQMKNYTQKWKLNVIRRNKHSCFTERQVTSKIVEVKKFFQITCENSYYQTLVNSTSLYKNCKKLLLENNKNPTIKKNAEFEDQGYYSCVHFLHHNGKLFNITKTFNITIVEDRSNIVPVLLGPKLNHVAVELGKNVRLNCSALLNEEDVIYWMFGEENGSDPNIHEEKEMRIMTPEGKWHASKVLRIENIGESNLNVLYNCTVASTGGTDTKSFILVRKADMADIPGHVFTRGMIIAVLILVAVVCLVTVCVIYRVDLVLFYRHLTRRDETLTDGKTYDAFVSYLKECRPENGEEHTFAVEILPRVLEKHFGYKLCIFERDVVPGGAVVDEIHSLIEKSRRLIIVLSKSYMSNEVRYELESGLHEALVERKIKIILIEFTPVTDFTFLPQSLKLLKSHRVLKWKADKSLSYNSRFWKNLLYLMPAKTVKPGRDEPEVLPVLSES
T1 sequence (looked up) 2: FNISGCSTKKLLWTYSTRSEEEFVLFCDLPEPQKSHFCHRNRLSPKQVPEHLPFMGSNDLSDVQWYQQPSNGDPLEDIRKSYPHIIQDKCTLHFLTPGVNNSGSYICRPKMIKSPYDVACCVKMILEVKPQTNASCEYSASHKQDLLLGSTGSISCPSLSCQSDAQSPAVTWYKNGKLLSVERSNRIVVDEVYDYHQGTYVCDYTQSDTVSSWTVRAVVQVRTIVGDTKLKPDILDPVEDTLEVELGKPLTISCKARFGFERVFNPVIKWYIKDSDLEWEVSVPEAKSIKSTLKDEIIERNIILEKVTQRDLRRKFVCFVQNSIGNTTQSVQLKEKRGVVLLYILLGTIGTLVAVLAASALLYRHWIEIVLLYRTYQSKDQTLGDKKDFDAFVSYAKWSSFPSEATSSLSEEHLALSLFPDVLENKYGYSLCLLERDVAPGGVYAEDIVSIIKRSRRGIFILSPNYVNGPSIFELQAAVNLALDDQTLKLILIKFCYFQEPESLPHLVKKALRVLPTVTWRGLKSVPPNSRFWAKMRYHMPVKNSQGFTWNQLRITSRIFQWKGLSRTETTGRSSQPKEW
Assay: cell-based or functional assay
READOUT TYPE: EC50, HEK-Blue IL18R reporter assay

INSERT INTO measurements (binder, result) VALUES
  ('IL-18 polypeptide C164 (V11I, C38A, S55H, C76A, C127A) (ligand) YFGKLESKLSIIRNLNDQVLFIDQGNRPLFEDMTDSDARDNAPRTIFIISMYKDHQPRGMAVTISVKCEKISTLSAENKIISFKEMNPPDNIKDTKSDIIFFQRSVPGHDNKMQFESSSYEGYFLAAEKERDLFKLILKKEDELGDRSIMFTVQNED', '3.14 pM'),
  ('IL-18 polypeptide C143 (V11I, C38A, K53A, C76A, C127A) (ligand) YFGKLESKLSIIRNLNDQVLFIDQGNRPLFEDMTDSDARDNAPRTIFIISMYADSQPRGMAVTISVKCEKISTLSAENKIISFKEMNPPDNIKDTKSDIIFFQRSVPGHDNKMQFESSSYEGYFLAAEKERDLFKLILKKEDELGDRSIMFTVQNED', '0.98 pM'),
  ('IL-18 polypeptide of SEQ ID NO: 60 (E6K, C38Q, K53A) (ligand) YFGKLKSKLSVIRNLNDQVLFIDQGNRPLFEDMTDSDQRDNAPRTIFIISMYADSQPRGMAVTISVKCEKISTLSCENKIISFKEMNPPDNIKDTKSDIIFFQRSVPGHDNKMQFESSSYEGYFLACEKERDLFKLILKKEDELGDRSIMFTVQNED', '0.203 pM'),
  ('IL-18 polypeptide C147 (V11I, C38A, K53A, D54A, C76A, C127A) (ligand) YFGKLESKLSIIRNLNDQVLFIDQGNRPLFEDMTDSDARDNAPRTIFIISMYAASQPRGMAVTISVKCEKISTLSAENKIISFKEMNPPDNIKDTKSDIIFFQRSVPGHDNKMQFESSSYEGYFLAAEKERDLFKLILKKEDELGDRSIMFTVQNED', '1 pM'),
  ('IL-18 polypeptide C150 (V11I, T34A, C38A, K53A, C76A, C127A) (ligand) YFGKLESKLSIIRNLNDQVLFIDQGNRPLFEDMADSDARDNAPRTIFIISMYADSQPRGMAVTISVKCEKISTLSAENKIISFKEMNPPDNIKDTKSDIIFFQRSVPGHDNKMQFESSSYEGYFLAAEKERDLFKLILKKEDELGDRSIMFTVQNED', '0.7 pM'),
  ('IL-18 polypeptide C183 (SEQ ID NO: 69; E6K, V11I, C38A, M51G, K53A, T63A, C76A, C127A) (ligand) YFGKLKSKLSIIRNLNDQVLFIDQGNRPLFEDMTDSDARDNAPRTIFIISGYADSQPRGMAVAISVKCEKISTLSAENKIISFKEMNPPDNIKDTKSDIIFFQRSVPGHDNKMQFESSSYEGYFLAAEKERDLFKLILKKEDELGDRSIMFTVQNED', '0.1 pM'),
  ('IL-18 polypeptide C159 (V11I, C38A, K53A, C76A, H109A, C127A) (ligand) YFGKLESKLSIIRNLNDQVLFIDQGNRPLFEDMTDSDARDNAPRTIFIISMYADSQPRGMAVTISVKCEKISTLSAENKIISFKEMNPPDNIKDTKSDIIFFQRSVPGADNKMQFESSSYEGYFLAAEKERDLFKLILKKEDELGDRSIMFTVQNED', '19.5 pM'),
  ('IL-18 polypeptide C142 (Y1M, E6K, V11I, C38A, K53A, T63A, C76A, C127A) (ligand) MFGKLKSKLSIIRNLNDQVLFIDQGNRPLFEDMTDSDARDNAPRTIFIISMYADSQPRGMAVAISVKCEKISTLSAENKIISFKEMNPPDNIKDTKSDIIFFQRSVPGHDNKMQFESSSYEGYFLAAEKERDLFKLILKKEDELGDRSIMFTVQNED', '0.02 pM'),
  ('IL-18 polypeptide C179 (E6K, K8E, V11I, C38A, K53A, T63A, C76A, Q103R, C127A) (ligand) YFGKLKSELSIIRNLNDQVLFIDQGNRPLFEDMTDSDARDNAPRTIFIISMYADSQPRGMAVAISVKCEKISTLSAENKIISFKEMNPPDNIKDTKSDIIFFRRSVPGHDNKMQFESSSYEGYFLAAEKERDLFKLILKKEDELGDRSIMFTVQNED', '0.4 pM'),
  ('IL-18 polypeptide C165 (V11I, C38A, S55R, C76A, C127A) (ligand) YFGKLESKLSIIRNLNDQVLFIDQGNRPLFEDMTDSDARDNAPRTIFIISMYKDRQPRGMAVTISVKCEKISTLSAENKIISFKEMNPPDNIKDTKSDIIFFQRSVPGHDNKMQFESSSYEGYFLAAEKERDLFKLILKKEDELGDRSIMFTVQNED', '1.91 pM');

These entries and their values trace back to patent US20250186597A1.
